# Test Target: human LILRB2 (human) (UniProt Q8N423)
# Measurement Description: BLI Octet sandwich binning; competitor (antibody #1 on sensor) J-17
Assay Readout: response of antibody #2
Form field (numeric): enter value without unit.

Name the recorded response of antibody #2 of the binder listed here: J-19 (antibody, human IgG4 S228P, kappa, V domains shown) VH: QVTLKESGPGILQPSHTLSLTCSFSGFSLNTYAMGVSWIRQPSGKGLEWLASIWWNGNKYNNPSLKSRLTVSKDTSNNQAFLKVTSVDTADTATYYCAHSRIIRFTDYVMDAWGQGASVTVSS VL: DIQMTQSPASLSTFLGEPVTIECRASEDIYNDLAWYQQKPGKSPQLLIYNANSLHTGVPSRFSGSGSGTQYSLKINSLQSEDVASYFCQQYYDYPLTFGSGTKLEIKR -0.1
